test system: A498; test: NCI tumour cell line growth inhibition, 48 h
Calls of active or inactive are those of the source. Rule as the data show it: active = GI50 up to about 1.1 µM and inactive = higher. Residues, ends and D or L forms follow the SMILES beside them. *: point of attachment. Boc = CC(C)(C)OC(=O)*; OBn = c1ccc(CO*)cc1
// reported GI50 per item
Measurement kind: GI50

Molecule	Experimental target	Measurement kind	Endpoint value
CCOC(=O)c1c(-c2cccc3ccccc23)c(C#N)c(=S)n(C2OC(COC(C)=O)C(OC(C)=O)C(OC(C)=O)C2OC(C)=O)c1C (stereo not given)	A498	GI50	> 100 µM (inactive)
Cc1ccc([N+](=O)[O-])cc1S(=O)(=O)Nc1ccc(C2=NNC(c3cccs3)C2)cc1 (stereo not given)	A498	GI50	20.4 µM (inactive)
COc1ccc(NC(=O)/C(Cc2nc3ccccc3nc2O)=N\O)c(OC)c1	A498	GI50	> 100 µM (inactive)
CCOC(=O)c1c(NC(=O)c2ccccc2)sc2c1CCCC2	A498	GI50	> 100 µM (inactive)
COc1cc2c(cc1OC)C(Cl)C(c1cc(OC)c(OC)c(OC)c1)=C2Cl (stereo not given)	A498	GI50	22.3 µM (inactive)
CC1(C)C2CCC3(OCCO3)C1C(O)C2 (stereo not given)	A498	GI50	> 100 µM (inactive)
COc1cc(CNc2nc3ccccc3n2Cc2ccccc2)cc(CN2CCOCC2)c1O	A498	GI50	21.1 µM (inactive)
Fc1c(F)c(F)c(CSc2nc3ccccc3[nH]2)c(F)c1F	A498	GI50	> 100 µM (inactive)
OCc1ccc2c(c1)CC1(Cc3ccccc3C1)C2	A498	GI50	26.7 µM (inactive)
CCN(CC)CCCCC1CCN(CC(=O)N2c3ccccc3NC(=O)CC2C)CC1 (stereo not given)	A498	GI50	> 100 µM (inactive)
O=C(O)\C=C/C=C/C=C/C=C/C(=O)O	A498	GI50	> 100 µM (inactive)
O=C1OC(c2ccc(Cl)cc2)(c2ccc(Cl)cc2)c2c1ccc1ccccc21	A498	GI50	> 100 µM (inactive)
O=c1[nH]cnc2c1ncn2C1SC(CO)C(O)C1O (stereo not given)	A498	GI50	> 100 µM (inactive)
N#CC(C#N)=CNC(=S)c1ccncc1	A498	GI50	92.9 µM (inactive)
CC(C)(C)NC(NC(C)(C)C)=C(C(Cl)=C(Cl)Cl)[N+](=O)[O-]	A498	GI50	> 100 µM (inactive)
COc1ccc(OC)c(N2C(=O)/C(=C\c3ccccc3)SC2c2cc(OC)c(OC)c(OC)c2)c1 (stereo not given)	A498	GI50	51.5 µM (inactive)
NC(=O)N/N=C(/Cc1nc2ccc(C(=O)c3ccccc3)cc2nc1O)C(=O)Nc1ccc(C(F)(F)F)cc1[N+](=O)[O-]	A498	GI50	> 100 µM (inactive)
NS(=O)(=O)c1ccc(N=C2C(=O)Nc3ccccc32)cc1	A498	GI50	> 100 µM (inactive)
Clc1nc(-c2ccccc2)nc(Cl)c1Cl	A498	GI50	17.6 µM (inactive)
N#CC(=N)c1ncn(-c2ccc(N)cc2)c1N	A498	GI50	> 100 µM (inactive)
COc1ccc2c(c1)N(C(C)=O)CN1C(=O)CCC21 (stereo not given)	A498	GI50	> 100 µM (inactive)
CC1=C(C(=O)Nc2ccc(Cl)c(Cl)c2)C(c2ccco2)C(C(=O)Nc2ccc(Cl)c(Cl)c2)=C(C)N1	A498	GI50	12.8 µM (inactive)
CCN(CCCN(CC)C(=O)N[C@@H](Cc1ccccc1)C(=O)NC)C(=O)N[C@@H](Cc1ccccc1)C(=O)NC	A498	GI50	> 100 µM (inactive)
CO[C@@H](c1ccccc1)[C@H](O)[C@@](O)(c1ccccc1)P(=O)(OC)OC	A498	GI50	> 100 µM (inactive)
Cc1ccc(S(=O)(=O)N/N=C2\CC3C4C=CC3C2C4)cc1 (stereo not given)	A498	GI50	> 100 µM (inactive)
CCOC(=O)c1nc2cc(C(F)(F)F)ccc2nc1Oc1ccc(F)cc1	A498	GI50	> 100 µM (inactive)
O=c1[nH]c2c(c(=O)[nH]1)SSC2	A498	GI50	25.7 µM (inactive)
Cc1nc(-n2[nH]c(C)c(CCO)c2=O)[nH]c(=O)c1CCO	A498	GI50	93.1 µM (inactive)
Cc1ccc(NC(S)=Nc2c(C)n(C)n(-c3ccccc3)c2=O)cc1	A498	GI50	> 100 µM (inactive)
Cc1cc(C)c2[s+]snc2c1	A498	GI50	37.7 µM (inactive)
O=C(OC1CN2CCC1CC2)N(c1ccccc1)c1ccccc1 (stereo not given)	A498	GI50	24.7 µM (inactive)
CC(=O)Nc1ccc(-c2nc3ccccc3s2)cc1Cl	A498	GI50	5.68 µM (inactive)
CC(C)C(NC(=O)C(Cc1ccccc1)NC(=O)OC(C)(C)C)C(=O)NCC(=O)OCc1ccccc1 (stereo not drawn) (Boc-Phe-Val-Gly-OBn; configuration not given here)	A498	GI50	44.6 µM (inactive)
N#CC(C#N)=CNC(N)=S	A498	GI50	> 100 µM (inactive)
O=C1NC2(CCCCC2)C2CCCCCC12 (stereo not given)	A498	GI50	> 100 µM (inactive)

Source of measurements: ChEMBL document CHEMBL1201862
